- assaySummary: Examination of the metabolism of acetylsalicylic acid: ASA and SA in plasma by HPLC after gel applied onto skin
- Type: in vivo, New Zealand giant white rabbits
- reportedConditions: male, New Zealand giant white, rabbit, in vivo, pH 6.5, Salicylic acid and acetysalicylic acid contents of blood samples
- Experimental: The tests were performed on 6 week old male New Zealand giant white rabbits. […] The hair was shaved off from the backs of the rabbits, and 0.6 g of a gel with the following composition was applied onto the skin: Blood samples were taken periodically as indicated in Table 1 from the jugular veins of the animals, the samples were centrifuged to separate the plasma, and the acetylsalicylic acid (ASA) and salicylic acid (SA) contents of the samples were measured by HPLC. […]
propertyMeasured: concentration at 1.5 h (ng/mL)

1) O=C(O)c1ccccc1O: 2690
2) CC(=O)Oc1ccccc1C(=O)O: 7120

----------
Reported concentration at 2 h values for a set of compounds
- assaySummary: Examination of the metabolism of acetylsalicylic acid: ASA and SA in plasma by HPLC after gel applied onto skin
- Assay type: in vivo, New Zealand giant white rabbits
- reportedConditions: male, New Zealand giant white, rabbit, in vivo, pH 6.5, Salicylic acid and acetysalicylic acid contents of blood samples
propertyMeasured: concentration at 2 h

1) CC(=O)Oc1ccccc1C(=O)O: 6980 ng/mL
2) O=C(O)c1ccccc1O: 3110 ng/mL

----------
- assaySummary: Examination of the metabolism of acetylsalicylic acid: ASA and SA in plasma by HPLC after gel applied onto skin
- Assay type: in vivo, New Zealand giant white rabbits
- reportedConditions: male, New Zealand giant white, rabbit, in vivo, pH 6.5, Salicylic acid and acetysalicylic acid contents of blood samples
Measured concentration at 1 h of individual entries
propertyMeasured: concentration at 1 h

1. CC(=O)Oc1ccccc1C(=O)O: 7700 ng/mL
2. O=C(O)c1ccccc1O: 3020 ng/mL

----------
- assaySummary: Examination of the metabolism of acetylsalicylic acid: ASA and SA in plasma by HPLC after gel applied onto skin
- Type: in vivo, New Zealand giant white rabbits
- reportedConditions: male, New Zealand giant white, rabbit, in vivo, pH 6.5, Salicylic acid and acetysalicylic acid contents of blood samples
Some compounds, each annotated with its measured concentration at 0.25 h.
propertyMeasured: concentration at 0.25 h (ng/mL)

1) CC(=O)Oc1ccccc1C(=O)O: 570
2) O=C(O)c1ccccc1O: 900

----------
- assaySummary: Examination of the metabolism of acetylsalicylic acid: ASA and SA in plasma by HPLC after gel applied onto skin
- Assay type: in vivo, New Zealand giant white rabbits
- reportedConditions: male, New Zealand giant white, rabbit, in vivo, pH 6.5, Salicylic acid and acetysalicylic acid contents of blood samples
Form field: concentration at 0.75 h (one value per entry).
propertyMeasured: concentration at 0.75 h (ng/mL)

1) O=C(O)c1ccccc1O [SA, salicylic acid]: 2810
2) CC(=O)Oc1ccccc1C(=O)O [ASA, acetylsalicylic acid]: 9440

----------
Each record here notes measured concentration at 0.75 hours.
- assaySummary: Examination of the metabolism of acetylsalicylic acid: ASA and SA in plasma by HPLC after gel applied onto skin
- Assay type: in vivo, New Zealand giant white rabbits
- reportedConditions: male, New Zealand giant white, rabbit, in vivo, Salicylic acid and acetysalicylic acid contents of blood samples
propertyMeasured: concentration at 0.75 hours (ng/mL)

1) CC(=O)Oc1ccccc1C(=O)O: 115
2) O=C(O)c1ccccc1O: 40800

Just for reference, patent US20050004084A1 is where these values come from.
